# Test Details: Partition coefficient (logP)
# Format: physicochemical
# Cond: octanol/water
Property Measured: logP

Consider the worked cases shown below.
chemical_structure=CC(C)C[C@H](O)[C@H](O)[C@H](CC1CCCCC1)NC(=O)CN readout_number=1.52
chemical_structure=CC(C)C[C@H](O)[C@H](O)[C@H](CC1CCCCC1)NC(=O)/C=C/c1ccccc1 readout_number=3.61

A: CC(C)C[C@H](O)[C@H](O)[C@H](CC1CCCCC1)NC(=O)CCCCCc1ccccc1
B: CC(C)C[C@H](O)[C@H](O)[C@H](CC1CCCCC1)NC(=O)[C@H](Cc1csc(N)n1)NC(=O)[C@H](Cc1ccccc1)NS(=O)(=O)N1CCN(C(=O)CCC(=O)O)CC1
stdin: Pick one: A or B . Which one has the lower reported logP? I would appreciate it if you answered with the label of your choice.
stdout: B
(B: 2.03, A: 4.66)
